Recorded values, source patent US20260327570A1.

# Tested on: lung cancer organoids from lung cancer tissue exhibiting EGFR mutations
# Method: Drug sensitivity test of lung cancer organoids (CellTiter-Glo 3D cell viability; calcein-AM staining)
# Format: cell-based, human
# Condition Parameters: EGFR-mutant lung cancer organoids; six concentrations, drug treatment for 3 days; viability on day 6
# Description: The experimental overview is conceptually illustrated in FIG. 12. The organoids were harvested and mixed with Matrigel (Corning Life Sciences, USA, catalog #354263) and seeded onto pillar plates at 5×10^5 cells/mL. […] Cell viability was measured by staining with 0.5 μM calcein-AM at 37 °C for 1 hour, followed by two PBS washes for 20 minutes. […] The scanned images were analyzed using CellAnalyzer version 2.0 (Medical & Bio Decision). […]
Each entry below carries its reported AUC (area under the curve).
# answer = number (no unit)

1. C[C@@H](Oc1cc(-c2cnn(C3CCNCC3)c2)cnc1N)c1c(Cl)ccc(F)c1Cl 177.2

Short answer for `C=CC(=O)Nc1cc(Nc2nccc(-c3cn(C)c4ccccc34)n2)c(OC)cc1N(C)CCN(C)C` : AUC (area under the curve) was 133.9

Short answer for `CCc1cc2c(cc1N1CCC(N3CCOCC3)CC1)C(C)(C)c1[nH]c3cc(C#N)ccc3c1C2=O` : AUC (area under the curve) was 240.9

Short answer for `CN(C)C/C=C/C(=O)Nc1cc2c(Nc3ccc(F)c(Cl)c3)ncnc2cc1O[C@H]1CCOC1` : AUC (area under the curve) was 125.1
